Reported values of log10(Activity) for individual entries
- ASSAY_TEXT: ABTS radical scavenging activity assessed as Trolox equivalent antioxidant capacity at 1 mM by spectrophotometry
- Type: physicochemical
- ASSAY_CONDITIONS: 1000 µM
ASSAY_METRIC: log10(Activity) (log10 of the value in mM)

[
  {
    "COMPOUND": "C[C@@H]1O[C@@H](OC[C@H]2O[C@@H](Oc3cc(O)c4c(=O)c(O)c(-c5cc(O)c(O)c(O)c5)oc4c3)[C@H](O)[C@@H](O)[C@@H]2O)[C@H](O)[C@H](O)[C@H]1O",
    "NUMBER": 0.15
  },
  {
    "COMPOUND": "COc1ccc(C=O)cc1O",
    "NUMBER": -0.84
  },
  {
    "COMPOUND": "O=C/C=C/c1ccc(O)c(O)c1",
    "NUMBER": -0.15
  },
  {
    "COMPOUND": "COC(=O)c1ccc(O)c(O)c1 [METHYL PROTOCATECHUATE]",
    "NUMBER": -0.07
  },
  {
    "COMPOUND": "O=c1c(O[C@@H]2O[C@H](CO)[C@@H](O)[C@H](O)[C@H]2O)c(-c2ccc(O)c(O)c2)oc2cc(O)cc(O)c12",
    "NUMBER": -0.12
  },
  {
    "COMPOUND": "COC(=O)c1cc(O)c(O)c(O)c1",
    "NUMBER": 0.06
  },
  {
    "COMPOUND": "O=c1c(O)c(-c2ccc(O)c(O)c2)oc2cc(O)cc(O)c12",
    "NUMBER": 0.41
  },
  {
    "COMPOUND": "C[C@@H]1O[C@@H](Oc2c(-c3ccc(O)c(O)c3)oc3cc(O)cc(O)c3c2=O)[C@H](O)[C@H](O)[C@H]1O",
    "NUMBER": -0.07
  }
]

###

Reported values of IC50 for individual entries
- ASSAYED_TARGET: Xanthine dehydrogenase/oxidase (Homo sapiens)
- Sequence (P47989 whole entry): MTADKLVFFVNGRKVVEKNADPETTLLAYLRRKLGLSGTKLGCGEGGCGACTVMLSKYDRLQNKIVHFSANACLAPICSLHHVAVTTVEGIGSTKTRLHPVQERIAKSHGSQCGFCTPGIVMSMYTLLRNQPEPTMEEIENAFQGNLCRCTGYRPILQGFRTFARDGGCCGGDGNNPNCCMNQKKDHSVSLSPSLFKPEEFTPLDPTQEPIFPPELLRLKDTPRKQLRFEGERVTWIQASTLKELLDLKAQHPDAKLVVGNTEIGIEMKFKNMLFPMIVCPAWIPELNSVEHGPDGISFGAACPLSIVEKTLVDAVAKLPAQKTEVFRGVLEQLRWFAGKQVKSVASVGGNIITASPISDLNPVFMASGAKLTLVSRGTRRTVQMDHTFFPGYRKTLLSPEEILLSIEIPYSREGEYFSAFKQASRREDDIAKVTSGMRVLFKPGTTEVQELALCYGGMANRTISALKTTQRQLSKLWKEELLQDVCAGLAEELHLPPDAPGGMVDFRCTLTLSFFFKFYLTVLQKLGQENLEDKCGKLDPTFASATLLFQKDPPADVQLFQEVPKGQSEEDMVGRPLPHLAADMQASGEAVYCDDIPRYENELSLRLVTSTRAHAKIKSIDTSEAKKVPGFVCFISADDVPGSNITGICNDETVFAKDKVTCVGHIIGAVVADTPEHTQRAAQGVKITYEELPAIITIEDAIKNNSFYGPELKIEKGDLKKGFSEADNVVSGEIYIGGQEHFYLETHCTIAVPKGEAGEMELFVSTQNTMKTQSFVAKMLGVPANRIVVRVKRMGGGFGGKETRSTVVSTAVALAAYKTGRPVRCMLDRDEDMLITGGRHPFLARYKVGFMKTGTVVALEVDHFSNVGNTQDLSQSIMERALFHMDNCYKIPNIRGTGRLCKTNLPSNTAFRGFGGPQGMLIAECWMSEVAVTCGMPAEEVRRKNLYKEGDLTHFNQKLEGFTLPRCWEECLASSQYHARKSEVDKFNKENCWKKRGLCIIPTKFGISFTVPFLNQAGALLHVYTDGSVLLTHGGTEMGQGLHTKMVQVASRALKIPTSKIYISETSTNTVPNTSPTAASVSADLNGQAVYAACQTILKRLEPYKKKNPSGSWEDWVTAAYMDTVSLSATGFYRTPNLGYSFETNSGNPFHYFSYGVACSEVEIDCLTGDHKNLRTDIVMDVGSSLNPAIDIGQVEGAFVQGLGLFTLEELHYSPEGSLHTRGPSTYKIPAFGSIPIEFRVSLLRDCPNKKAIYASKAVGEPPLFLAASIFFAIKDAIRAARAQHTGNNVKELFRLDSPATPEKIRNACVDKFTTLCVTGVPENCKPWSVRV

[
  {
    "COMPOUND": "COc1ccc(C=O)cc1O",
    "COMPARISON_SYMBOL": ">",
    "IC50, µM": 50
  },
  {
    "COMPOUND": "C[C@@H]1O[C@@H](Oc2c(-c3ccc(O)c(O)c3)oc3cc(O)cc(O)c3c2=O)[C@H](O)[C@H](O)[C@H]1O",
    "COMPARISON_SYMBOL": "=",
    "IC50, µM": 14.7
  },
  {
    "COMPOUND": "O=c1c(O)c(-c2cc(O)c(O)c(O)c2)oc2cc(O[C@@H]3O[C@H](CO[C@@H]4O[C@H](CO)[C@@H](O)[C@H](O)[C@H]4O)[C@@H](O)[C@H](O)[C@H]3O)cc(O)c12",
    "COMPARISON_SYMBOL": "=",
    "IC50, µM": 6.52
  },
  {
    "COMPOUND": "COC(=O)c1cc(O)c(O)c(O)c1",
    "COMPARISON_SYMBOL": "=",
    "IC50, µM": 15.5
  },
  {
    "COMPOUND": "COC(=O)c1ccc(O)c(O)c1 [METHYL PROTOCATECHUATE]",
    "COMPARISON_SYMBOL": "=",
    "IC50, µM": 29.6
  }
]
